# System: RXRa homodimer (NR concentration 180 nM)
# assay_procedure: PBM binding z-score (relative to random genomic background probes); higher = stronger binding; sequences stand for … in GC…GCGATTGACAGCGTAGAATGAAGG
Below, each of the sequences is paired with its reported PBM binding z-score value.

residue_codes: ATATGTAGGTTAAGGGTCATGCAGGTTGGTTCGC
PBM binding z-score: 6.52
--
residue_codes: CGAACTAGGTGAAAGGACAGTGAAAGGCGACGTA
PBM binding z-score: 0.373
--
residue_codes: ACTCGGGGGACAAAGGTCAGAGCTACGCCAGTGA
PBM binding z-score: 6.34
--
residue_codes: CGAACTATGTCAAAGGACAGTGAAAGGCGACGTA
PBM binding z-score: 0.00503
--
residue_codes: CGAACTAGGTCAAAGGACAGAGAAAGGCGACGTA
PBM binding z-score: 3.38
--
residue_codes: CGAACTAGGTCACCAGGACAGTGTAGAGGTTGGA
PBM binding z-score: 3.25
--
residue_codes: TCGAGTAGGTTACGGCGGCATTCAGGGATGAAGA
PBM binding z-score: 0.642
--
residue_codes: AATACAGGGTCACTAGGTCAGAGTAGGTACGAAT
PBM binding z-score: 6.66
--
residue_codes: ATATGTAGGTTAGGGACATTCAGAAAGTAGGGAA
PBM binding z-score: 0.406
--
residue_codes: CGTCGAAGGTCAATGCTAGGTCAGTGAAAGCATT
PBM binding z-score: 5.4
--
residue_codes: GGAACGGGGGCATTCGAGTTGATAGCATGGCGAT
PBM binding z-score: 2.47
--
residue_codes: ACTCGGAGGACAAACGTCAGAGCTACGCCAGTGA
PBM binding z-score: -0.425
--
residue_codes: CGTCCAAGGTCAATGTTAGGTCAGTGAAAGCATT
PBM binding z-score: 5.27
--
residue_codes: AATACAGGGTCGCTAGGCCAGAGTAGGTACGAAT
PBM binding z-score: 1.52
--
residue_codes: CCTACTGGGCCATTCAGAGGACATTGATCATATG
PBM binding z-score: -0.174
--
residue_codes: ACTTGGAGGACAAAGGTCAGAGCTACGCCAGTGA
PBM binding z-score: 5.24
--
residue_codes: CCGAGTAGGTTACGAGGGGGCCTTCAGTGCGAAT
PBM binding z-score: 0.978
--
residue_codes: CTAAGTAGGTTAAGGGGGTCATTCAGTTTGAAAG
PBM binding z-score: 5.62
--
residue_codes: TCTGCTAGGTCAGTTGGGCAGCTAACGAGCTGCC
PBM binding z-score: 0.493
--
residue_codes: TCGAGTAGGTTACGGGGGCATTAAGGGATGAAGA
PBM binding z-score: 2.56
--
residue_codes: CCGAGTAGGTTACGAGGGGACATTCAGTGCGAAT
PBM binding z-score: 0.907
--
residue_codes: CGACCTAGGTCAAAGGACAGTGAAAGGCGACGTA
PBM binding z-score: 4
--
residue_codes: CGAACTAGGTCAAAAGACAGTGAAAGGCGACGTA
PBM binding z-score: 2.54
--
residue_codes: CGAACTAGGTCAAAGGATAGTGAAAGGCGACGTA
PBM binding z-score: 2.85
--
residue_codes: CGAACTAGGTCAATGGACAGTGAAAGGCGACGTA
PBM binding z-score: 2.14
--
residue_codes: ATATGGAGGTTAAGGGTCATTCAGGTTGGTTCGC
PBM binding z-score: 7.76
--
residue_codes: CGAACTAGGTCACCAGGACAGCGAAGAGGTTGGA
PBM binding z-score: 3.19
--
residue_codes: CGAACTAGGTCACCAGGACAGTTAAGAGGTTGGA
PBM binding z-score: 3.22
--
residue_codes: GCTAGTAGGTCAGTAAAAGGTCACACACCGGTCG
PBM binding z-score: 6.4
--
residue_codes: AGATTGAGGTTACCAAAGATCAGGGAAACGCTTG
PBM binding z-score: 2.81
--
residue_codes: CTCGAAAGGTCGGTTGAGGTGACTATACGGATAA
PBM binding z-score: 2.76
--
residue_codes: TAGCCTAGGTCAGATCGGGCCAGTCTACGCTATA
PBM binding z-score: 1.31
--
residue_codes: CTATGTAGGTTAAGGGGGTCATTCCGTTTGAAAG
PBM binding z-score: 5.96
--
residue_codes: CCTACTGGGCAAAAAAGGTCATTGATGCCGATAA
PBM binding z-score: 4.81
--
residue_codes: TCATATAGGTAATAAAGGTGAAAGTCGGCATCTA
PBM binding z-score: 2.06
--
residue_codes: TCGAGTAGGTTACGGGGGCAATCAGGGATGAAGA
PBM binding z-score: 2.73
--
residue_codes: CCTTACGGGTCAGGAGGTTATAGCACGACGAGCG
PBM binding z-score: 4.96
--
residue_codes: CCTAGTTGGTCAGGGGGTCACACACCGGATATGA
PBM binding z-score: 6.18
--
residue_codes: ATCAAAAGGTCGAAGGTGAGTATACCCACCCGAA
PBM binding z-score: 5.55
--
residue_codes: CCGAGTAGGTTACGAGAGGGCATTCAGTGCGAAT
PBM binding z-score: 1.39
--
residue_codes: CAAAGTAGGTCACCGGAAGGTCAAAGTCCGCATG
PBM binding z-score: 7.28
--
residue_codes: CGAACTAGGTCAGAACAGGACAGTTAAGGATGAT
PBM binding z-score: 1.3
--
residue_codes: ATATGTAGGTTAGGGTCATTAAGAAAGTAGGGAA
PBM binding z-score: 4.57
--
residue_codes: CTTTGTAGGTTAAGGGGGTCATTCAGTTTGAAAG
PBM binding z-score: 6.08
--
residue_codes: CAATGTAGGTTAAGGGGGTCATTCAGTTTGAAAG
PBM binding z-score: 5.94
--
residue_codes: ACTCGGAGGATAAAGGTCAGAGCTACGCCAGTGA
PBM binding z-score: 4.43
--
residue_codes: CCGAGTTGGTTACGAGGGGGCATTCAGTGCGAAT
PBM binding z-score: 1.02
--
residue_codes: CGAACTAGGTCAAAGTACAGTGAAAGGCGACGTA
PBM binding z-score: 3.1
--
residue_codes: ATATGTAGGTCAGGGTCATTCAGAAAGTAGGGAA
PBM binding z-score: 5.76
--
residue_codes: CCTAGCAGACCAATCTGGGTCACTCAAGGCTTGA
PBM binding z-score: 0.711
--
residue_codes: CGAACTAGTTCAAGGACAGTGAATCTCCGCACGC
PBM binding z-score: 0.544

Origin of the recorded values: the supplement of paper PMC6555819
